Just for reference, patent US20240043395A1 is where these values come from.

Biological target: human TLR9 (Homo sapiens (Human), UniProt Q9NR96)
Sequence (Q9NR96 26-1032): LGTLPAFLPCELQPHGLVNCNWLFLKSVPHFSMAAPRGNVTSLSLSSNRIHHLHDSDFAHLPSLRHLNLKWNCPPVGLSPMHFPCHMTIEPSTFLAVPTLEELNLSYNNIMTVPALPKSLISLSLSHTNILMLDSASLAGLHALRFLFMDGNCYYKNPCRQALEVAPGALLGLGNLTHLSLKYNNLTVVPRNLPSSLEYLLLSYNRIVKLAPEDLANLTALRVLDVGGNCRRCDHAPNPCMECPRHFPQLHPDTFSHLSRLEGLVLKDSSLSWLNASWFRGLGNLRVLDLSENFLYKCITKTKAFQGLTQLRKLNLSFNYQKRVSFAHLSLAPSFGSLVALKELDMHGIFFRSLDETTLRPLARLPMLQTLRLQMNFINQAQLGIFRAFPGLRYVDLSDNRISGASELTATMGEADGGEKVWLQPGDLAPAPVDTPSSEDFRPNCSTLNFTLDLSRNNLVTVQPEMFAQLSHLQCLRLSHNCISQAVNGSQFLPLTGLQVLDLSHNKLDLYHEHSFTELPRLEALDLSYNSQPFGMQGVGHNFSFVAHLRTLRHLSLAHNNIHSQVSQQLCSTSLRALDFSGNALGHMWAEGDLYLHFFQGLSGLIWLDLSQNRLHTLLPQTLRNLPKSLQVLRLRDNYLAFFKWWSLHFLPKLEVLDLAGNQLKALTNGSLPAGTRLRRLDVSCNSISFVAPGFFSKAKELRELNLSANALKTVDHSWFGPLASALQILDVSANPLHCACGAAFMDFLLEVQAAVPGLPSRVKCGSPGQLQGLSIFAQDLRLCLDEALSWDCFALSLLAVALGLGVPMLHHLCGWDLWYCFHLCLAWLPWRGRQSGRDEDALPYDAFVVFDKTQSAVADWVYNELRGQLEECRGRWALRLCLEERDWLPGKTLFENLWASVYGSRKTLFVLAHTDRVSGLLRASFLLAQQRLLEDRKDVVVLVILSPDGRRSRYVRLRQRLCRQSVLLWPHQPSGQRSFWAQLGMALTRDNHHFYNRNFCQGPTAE
Test: HEK-Blue hTLR9 antagonism assay (SEAP reporter), agonist ODN 2006
Assay type: cell-based
Details: HEK-Blue hTLR9 cells; ODN 2006 (TLR9 agonist) at approx. 3×EC50; 18 h; exact values 8-point, approximate (~ or <) 4-point dilutions; read-out: IC50 (μM) with ODN2006

# COMPOUND STRUCTURE STRING, IC50 / µM
rows = [
    ("O=Cc1cc(C(=O)Nc2nc(-c3ccc(N4CCCC4)cc3)ns2)cc(F)c1O", 0.5),
    ("O=Cc1cc(C(=O)Nc2ncc(-c3ccc(F)cc3)s2)cc(F)c1O", 0.4),
    ("O=Cc1cc(C(=O)Nc2cnc(N3CCCC3)c(C(F)(F)F)c2)cc(F)c1O", 0.6),
    ("CN1CCN(/N=C/c2cc(C(=O)N3CCC(c4ccc(N5CCCC5)cc4)CC3)cc(F)c2O)CC1", 0.26),
    ("CN1CCN(/N=C/c2cc(-c3nc(-c4ccc(N5CCCC5)nc4)ns3)cc(F)c2O)CC1", 0.41),
]
